Sourced from paper PMC12566046

# Tested on: EKVX (non-small cell lung cancer cell line)
# ASSAY_NOTES: NCI-60 single-dose assay
# Format: cell-based, human
# EXPERIMENTAL_SETUP: Homo sapiens, read-out: growth inhibition (GI%) and cytotoxicity (negative values)
Entries annotated with measured inhibition at 10 µM
# output: numeric value plus its unit

{"columns": ["MOLECULE", "inhibition at 10 µM"],
 "data": [
  ["N#Cc1ccccc1N1CCN(CCNC(=O)c2c(Cl)[nH]c3c2CCCc2ccccc2-3)CC1 [Compound 18]", "92.8%"],
  ["COc1ccccc1N1CCN(CCNC(=O)c2c(Cl)[nH]c3c2CCCc2ccccc2-3)CC1 [Compound 15]", "81.7%"]
]}

Just so you know, measured inhibition at 10 µM for O=C(NCCN1CCN(c2ccc(Cl)c(Cl)c2)CC1)c1c(Cl)[nH]c2c1CCCc1ccccc1-2 [Compound 19] came out at 61.7%

Just so you know, measured inhibition at 10 µM for CCOc1ccccc1N1CCN(CCNC(=O)c2c(Cl)[nH]c3c2CCCc2ccccc2-3)CC1 [Compound 17] came out at 87.5%

Just so you know, measured inhibition at 10 µM for CCN1CCC[C@H]1CNC(=O)c1[nH]c2c(c1Cl)CCCc1ccccc1-2 [Compound 1] came out at 68.8%

Just so you know, measured inhibition at 10 µM for O=C(NCCCN1CCN(Cc2ccccc2)CC1)c1c(Cl)[nH]c2c1CCCc1ccccc1-2 [Compound 20] came out at 77.2%

Just so you know, measured inhibition at 10 µM for COc1ccccc1N1CCN(CCNC(=O)c2[nH]c3c(c2Cl)CCCc2ccccc2-3)CC1 [Compound 5] came out at 94.2%

Just so you know, measured inhibition at 10 µM for O=C(NCCCN1CCN(c2ccccc2)CC1)c1cc2c([nH]1)-c1ccccc1CCC2 [Compound 10] came out at 74.2%

Just so you know, measured inhibition at 10 µM for O=C(NCCN1CCN(c2ccccc2Cl)CC1)c1c(Cl)[nH]c2c1CCCc1ccccc1-2 [Compound 14] came out at 72.7%

Just so you know, measured inhibition at 10 µM for O=C(NCCN1CCN(c2ccccc2)CC1)c1c(Cl)[nH]c2c1CCCc1ccccc1-2 [Compound 12] came out at 72.3%

----------
# System: IAV strain A/PR/8/34 (H1N1)
# EXPERIMENTAL_SETUP: preliminary screening
ATTRIBUTE_MEASURED: IAV/MDCK SI
When you answer, write just the number.

{"columns": ["COMPOUND_STRUCTURE_STRING", "TARGET_DESC", "VAL"],
 "data": [
  ["N#Cc1ccccc1N1CCN(CCNC(=O)c2c(Cl)[nH]c3c2CCCc2ccccc2-3)CC1", "IAV strain A/PR/8/34 (H1N1)", 0.28],
  ["CCN1CCC[C@H]1CNC(=O)c1[nH]c2c(c1Cl)CCCc1ccccc1-2", "IAV strain A/PR/8/34 (H1N1)", 0.10],
  ["CCOc1ccccc1N1CCN(CCNC(=O)c2c(Cl)[nH]c3c2CCCc2ccccc2-3)CC1", "IAV strain A/PR/8/34 (H1N1)", 0.23]
]}

Just so you know, measured IAV/MDCK SI for COc1ccccc1N1CCN(CCNC(=O)c2c(Cl)[nH]c3c2CCCc2ccccc2-3)CC1 came out at 0.47

Just so you know, measured IAV/MDCK SI for O=C(NCCCN1CCN(Cc2ccccc2)CC1)c1c(Cl)[nH]c2c1CCCc1ccccc1-2 came out at 0.35

Just so you know, measured IAV/MDCK SI for O=C(NCCN1CCN(c2ccccc2)CC1)c1c(Cl)[nH]c2c1CCCc1ccccc1-2 came out at 9.18

Just so you know, measured IAV/MDCK SI for O=C(NCCN1CCN(c2ccc(Cl)cc2)CC1)c1c(Cl)[nH]c2c1CCCc1ccccc1-2 came out at 5.45
